Measured values drawn from patent US20260098053A1 for this set.

Target: [35S]-TBPS binding, rat brain cortical membranes
Assay: Steroid inhibition of [35S]-TBPS binding
Details: Table 4, 3 nM [35S]-TBPS, in the presence of 5 mM GABA, read-out: TBPS IC50
parameter: IC50

| compound | observed_result |
| --- | --- |
| Cc1nnnn1CC(=O)[C@H]1CCC[C@H]2[C@@H]3CC[C@@H]4C[C@](C)(O)CCC[C@@H]4[C@H]3CC[C@]12C [Example 12] | < 100 nM |
| C[C@]1(O)CC[C@H]2CC[C@@H]3[C@H](CC[C@]4(C)[C@@H](C(=O)CCn5cc(C#N)cn5)CCC[C@@H]34)[C@H]2CC1 [Example 51] | 100 to 1000 nM |

Now look at this one.
// query IC50 value for entry C[C@@]1(O)CCC[C@H]2[C@H](CC[C@@H]3[C@@H]2CC[C@]2(C)[C@@H](C(=O)Cn4cc(C#N)cn4)CCC[C@@H]32)C1 [Example 10]
< 100 nM

###

Target: [35S]-TBPS binding, rat brain cortical membranes
Experiment: Steroid inhibition of [35S]-TBPS binding
Settings: Table 4, 3 nM [35S]-TBPS, in the presence of 5 mM GABA, read-out: TBPS IC50
Description: [35S]-t-Butylbicyclophosphorothionate (TBPS) binding assays using rat brain cortical membranes in the presence of 5 mM GABA has been described (Gee et al, J. Pharmacol. Exp. Ther. 1987, 241, 346-353; Hawkinson et al, Mol. Pharmacol. 1994, 46, 977-985; Lewin, A. H et al., Mol. Pharmacol. 1989, 35, 189-194). Briefly, cortices are rapidly removed following decapitation of carbon dioxide-anesthetized Sprague-Dawley rats (200-250 g). […]
pIC50: −log10 of the molar value.
parameter: pIC50

| chemical_string | system_under_test | pIC50 |
| --- | --- | --- |
| Cc1nnnn1CC(=O)[C@H]1CCCC[C@H]2[C@@H]3CC[C@@H]4C[C@](C)(O)CCC[C@]4(C)[C@H]3CC[C@]12C | [35S]-TBPS binding, rat brain cortical membranes | 6.00 to 7.00 |

// query pIC50 value for entry `CC[C@]12CC[C@H]3[C@@H](CC[C@@H]4C[C@](C)(O)CC[C@@H]43)[C@@H]1CCC[C@@H]2C(=O)Cn1cc(C#N)cn1`
> 7.00

// query pIC50 value for entry `CC[C@]12CC[C@@](C)(O)C[C@H]1CC[C@H]1[C@@H]3CCCC[C@@H](C(=O)Cn4cc(C#N)cn4)[C@@]3(C)CC[C@@H]12`
6.00 to 7.00

// query pIC50 value for entry `C[C@]1(O)CC[C@@H]2CC[C@@H]3[C@H](CC[C@]4(C)[C@@H](C(=O)CCn5cc(C#N)cn5)CCC[C@@H]34)[C@@]2(C)CC1`
6.00 to 7.00

// query pIC50 value for entry `C[C@@]1(O)CCC[C@@]2(C)[C@H](CC[C@@H]3[C@@H]2CC[C@]2(C)[C@@H](C(=O)Cn4cc(C#N)cn4)CCCC[C@@H]32)C1`
> 7.00

###

# pIC50 listing for each entry below
Target: [35S]-TBPS binding, rat brain cortical membranes
Test: Steroid inhibition of [35S]-TBPS binding
Conditions: Table 4, 3 nM [35S]-TBPS, in the presence of 5 mM GABA, read-out: TBPS IC50
Description: [35S]-t-Butylbicyclophosphorothionate (TBPS) binding assays using rat brain cortical membranes in the presence of 5 mM GABA has been described (Gee et al, J. Pharmacol. Exp. Ther. 1987, 241, 346-353; Hawkinson et al, Mol. Pharmacol. 1994, 46, 977-985; Lewin, A. H et al., Mol. Pharmacol. 1989, 35, 189-194). Briefly, cortices are rapidly removed following decapitation of carbon dioxide-anesthetized Sprague-Dawley rats (200-250 g). […]
pIC50: −log10 of the molar value.

Examples from the recorded data:
| compound | pIC50 |
| --- | --- |
| C[C@]1(O)CC[C@@H]2CC[C@@H]3[C@H](CC[C@]4(C)[C@@H](C(=O)Cn5cc(C#N)cn5)CCC[C@@H]34)[C@@]2(C)CC1 [Example 44] | 6.00 to 7.00 |
| CC[C@]12CC[C@@](C)(O)CC[C@H]1CC[C@H]1[C@@H]3CC[C@H](C(C)=O)[C@@]3(C)CC[C@@H]12 [Example 25] | 6.00 to 7.00 |
| CC[C@]12CC[C@H]3[C@@H](CC[C@@H]4C[C@](C)(O)CCC[C@@]43C)[C@@H]1CC[C@@H]2C(=O)Cn1cc(C#N)cn1 [Example 30] | > 7.00 |

// query pIC50 value for entry CC[C@]12CC[C@@](C)(O)C[C@H]1CC[C@H]1[C@@H]3CCCC[C@H](C(=O)Cn4cc(C#N)cn4)[C@@]3(C)CC[C@@H]12 [Example 24]
> 7.00

// query pIC50 value for entry CC[C@]1(O)CC[C@H]2CC[C@@H]3[C@H](CC[C@]4(C)[C@H](C(C)=O)CCC[C@@H]34)[C@H]2CC1 [Example 47]
< 6.00

// query pIC50 value for entry CC[C@]1(O)CC[C@H]2CC[C@@H]3[C@H](CC[C@]4(C)[C@H](C(=O)Cn5cc(C#N)cn5)CCC[C@@H]34)[C@H]2CC1 [Example 48]
< 6.00

// query pIC50 value for entry CC[C@]12CC[C@@](C)(O)C[C@H]1CC[C@H]1[C@@H]3CCC[C@H](C(=O)Cn4cc(C#N)cn4)[C@@]3(C)CC[C@@H]12 [Example 19]
> 7.00

// query pIC50 value for entry CC[C@]12CC[C@H]3[C@@H](CC=C4CC[C@](C)(O)CC[C@@]43C)[C@@H]1CC[C@@H]2C(=O)Cn1cc(C#N)cn1 [Example 35]
> 7.00
